# measurement.description: Pharmacokinetics after single i.v. dose
# Assay type: in vivo, mice
# measurement.context: C57B/16, mouse, plasma, iv; 1 mg/kg i.v.; read-out: volume of distribution
measured.metric: Vd (L/kg)
Answer in L/kg, number only, no unit symbol.

Query: Requested read-out: Vd. Entry: `COc1cc2ccccc2cc1C(=O)NC(=S)Nc1ccc(-c2nc3ccccc3[nH]2)cc1`
Reply: 8.4

Where these numbers come from: patent US20250009716A1
